meta.source: patent US8309581B2

- experimental.target: FXR ligand binding domain (Homo sapiens, UniProt Q96RI1)
- Sequence (Q96RI1 193-472 isoform Q96RI1-2): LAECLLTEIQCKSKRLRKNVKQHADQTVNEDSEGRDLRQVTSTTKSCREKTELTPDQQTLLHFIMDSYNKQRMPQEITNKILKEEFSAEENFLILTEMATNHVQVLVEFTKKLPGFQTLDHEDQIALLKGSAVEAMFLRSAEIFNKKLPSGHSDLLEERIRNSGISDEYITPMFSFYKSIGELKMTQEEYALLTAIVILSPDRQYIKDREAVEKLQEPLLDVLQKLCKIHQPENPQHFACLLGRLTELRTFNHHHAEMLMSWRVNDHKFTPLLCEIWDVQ
- test.method.notes: Radioligand Binding Assay (scintillation proximity radioligand displacement)
- test.parameters: GST-FXR LBD fusion protein on SPA beads, test compound 6×10^−9 M to 2.5×10^−5 M
recorded.metric: IC50 (nM)

Use these answered entries as a reference point.
O=C(O)CCCCCOc1cc(Cl)ccc1-c1nc2cc(F)c(F)cc2n1CC1CCCCC1	2100
O=C(O)COc1ccc(COc2ncccc2-c2nc3cc(F)c(F)cc3n2Cc2ccccc2)cc1	12800
O=C(O)COc1ccc(Cn2c(-c3ccc(Cl)cc3OCC3CCCC3)nc3cc(F)c(F)cc32)cc1	200
Clc1ccc(-c2nc3ccccc3n2CC2CCCCC2)c(CCc2ccc(-c3nnn[nH]3)cc2)c1	30
COc1cc(Cl)ccc1-c1nc2cc(F)c(F)cc2n1Cc1ccc(-c2nnn[nH]2)cc1F	1100

a. Fc1cc2nc(-c3ccc(Cl)cc3C#Cc3ccc(-c4nnn[nH]4)cc3)n(CC3CCCCC3)c2cc1F
b. Fc1cc2nc(-c3ccc(Cl)cc3OCC3CCCC3)n(Cc3cccc(Cl)c3)c2cc1F
c. O=C(O)c1cccc(COc2cc(Cl)ccc2-c2nc3cc(F)c(F)cc3n2CC2CCCCC2)c1
INPUT: Arrange these compounds by their IC50, starting with the largest number. Enter labels, ranked according to the request.
OUTPUT: a, b, c

P. Fc1cc2nc(-c3cccnc3OCC3CC3)n(Cc3ccccc3)c2cc1F
Q. O=C(O)CCc1ccc(Cn2c(-c3ccc(Cl)cc3OCC3CCCC3)nc3cc(F)c(F)cc32)cc1
INPUT: Which of the two items, P and Q , has the greater recorded IC50? Which one? Tell me its label.
OUTPUT: P
(P: 5600 nM, Q: 300 nM)

A. O=C(O)c1ccc(Cn2c(-c3ccc(Cl)cc3OCC3CCCC3)nc3cc(F)c(F)cc32)cc1
B. Fc1cc2nc(-c3ccc(Cl)cc3OCC3CCOCC3)n(Cc3ccc(-c4nnn[nH]4)cc3F)c2cc1F
C. Fc1cc2nc(-c3ccc(Cl)cc3OCC3CCCC3)n(Cc3ccc(-c4nnn[nH]4)cc3)c2cc1F
D. Fc1cc2nc(-c3ccc(Cl)cc3OCC3CCCC3)n(Cc3ccccc3)c2cc1F
INPUT: Arrange these compounds by their IC50, starting with the largest number. Enter labels, ranked according to the request.
OUTPUT: B, D, A, C

a. O=C(O)c1cccc(Cn2c(-c3ccc(Cl)cc3OCC3CCCC3)nc3cc(F)c(F)cc32)c1
b. Fc1cc2nc(-c3ccccc3CCc3ccc(-c4nnn[nH]4)cc3)n(CC3CCCCC3)c2cc1F
INPUT: Which of the two items, a and b , has the greater recorded IC50? Which one? Tell me its label.
OUTPUT: a
